Test: Log P by HPLC on reversed phase columns (EEC directive 79/831 Annex V.A8)
Type: physicochemical
Settings: method [a]
propertyMeasured: LogP

Past entries and their recorded results:
COC(=O)C(NC(=O)c1sc(C#N)c(Cl)c1Cl)C1CC1 (centres unmarked) [1.0576]    3.05^[a]
COC(=O)CNC(=O)c1sc(Cl)c(C)c1Cl [1.0892]    2.64^[a]
N#Cc1c(C(=O)NC2(C(=O)OC3CCC3)CC2)sc(Cl)c1Br [1.0632]    3.21^[a]
CCOC(=O)CCNC(=O)c1sc(Cl)c(Br)c1Cl [1.0179]    3.54^[a]
CCOC(=O)C[C@H](NC(=O)c1sc(Cl)c(Cl)c1Br)C(=O)OCC [1.0551]    4.17^[a]
COC(=O)C(NC(=O)c1sc(Cl)c(Br)c1Br)C1CC1 (centres unmarked) [1.0211]    3.89^[a]

## Input Quick check: LogP of COC(=O)C1(NC(=O)c2sc(Br)c(Br)c2Cl)CC(F)(F)C1 [1.0624] ?
## Output 3.69^[a]

## Input Same for COC(=O)C1(NC(=O)c2sc(Cl)c(Br)c2C#N)CC1 [1.0600]
## Output 2.36^[a]

## Input Same for CCOC(=O)CCNC(=O)c1sc(Cl)c(Br)c1Br [1.0209]
## Output 3.57^[a]

## Input Same for CCOC(=O)[C@H](Cc1ccccc1)NC(=O)c1sc(Br)c(Br)c1F [1.0154]
## Output 4.55^[a]

## Input Same for COC(=O)[C@H](CCSC)NC(=O)c1sc(Br)c(Br)c1F [1.0159]
## Output 3.62^[a]

## Input Same for O=C(NC(C(=O)OCc1ccccc1)C1CC1)c1sc(Cl)c(Cl)c1Br (centres unmarked) [1.0617]
## Output 5.10^[a]

## Input Same for COC(=O)CNC(=O)c1sc(C#N)c(Cl)c1Cl [1.0571]
## Output 2.20^[a]

## Input Same for N#Cc1sc(C(=O)NC2(C(=O)OC3CCC3)CC2)c(Cl)c1Cl [1.0581]
## Output 3.30^[a]

## Input Same for CC(C)(C)OC(=O)C1(NC(=O)c2sc(Br)c(Br)c2F)CCC1 [1.0925]
## Output 4.78^[a]

## Input Same for COC(=O)CNC(=O)c1sc(Br)c(Cl)c1Cl [1.0194]
## Output 2.86^[a]

## Input Same for NC(=O)CNC(=O)c1sc(Br)c(Br)c1Cl [1.0638]
## Output 1.98^[a]

## Input Same for O=C(O)C(Cc1ccccc1)NC(=S)c1sc(Br)c(Br)c1F (centres unmarked) [1.0876]
## Output 4.17^[a]

====

Experiment: Log P by HPLC on reversed phase columns (EEC directive 79/831 Annex V.A8)
Type: physicochemical
Settings: method [a]
propertyMeasured: LogP

Past entries and their recorded results:
CCOC(=O)C(CO)NC(=O)c1sc(C#N)c(Cl)c1C (centres unmarked) [1.0835]    2.12^[a]
COC(=O)C(C)(C)NC(=O)c1sc(Cl)c(Br)c1F [1.0637]    3.27^[a]
COC(=O)C(Cc1c[nH]cn1)NC(=O)c1sc(Br)c(Br)c1F (centres unmarked) [1.0134]    1.39^[a]

## Input Quick check: LogP of CCNC(=O)SCC(NC(=O)c1sc(Br)c(Br)c1Cl)C(=O)OC (centres unmarked) [1.0536] ?
## Output 3.38^[a]

## Input Same for CCOC(=O)C(CO)NC(=O)c1sc(Br)c(Cl)c1C (centres unmarked) [1.0844]
## Output 2.60^[a]

## Input Same for CCOC(=O)C(Cc1ccccc1)NC(=O)c1sc(C#N)c(Cl)c1Cl (centres unmarked) [1.0577]
## Output 4.11^[a]

## Input Same for CCOC(=O)C(CC(C)C)NC(=O)c1sc(C#N)c(Br)c1C (centres unmarked) [1.0245]
## Output 3.85^[a]

## Input Same for CCOC(=O)C1(NC(=O)c2sc(C#N)c(Br)c2Cl)CC1 [1.0606]
## Output 2.79^[a]

====

Test: Log P by HPLC on reversed phase columns (EEC directive 79/831 Annex V.A8)
Assay type: physicochemical
Settings: LogP method [a]; compounds of formula (I), Table 1.1
Description: In the above tables, measurement of Log P values was performed according to EEC directive 79/831 Annex V.A8 by HPLC (High Performance Liquid Chromatography) on reversed phase columns with the following methods: • ^[a] […] Lambda-max-values were determined using UV-spectra from 200 nm to 400 nm and the peak values of the chromatographic signals.
propertyMeasured: LogP

Past entries and their recorded results:
COC(=O)CC(C)NC(=O)c1sc(Br)c(Br)c1F (centres unmarked) [1.0448]    3.14^[a]
O=C(O)CNC(=O)c1cc(I)c(I)s1 [1.0471]    1.87^[a]
CCOC(=O)C1(NC(=O)c2cc(C#N)c(Br)s2)CC1 [1.0401]    2.30^[a]
COC(=O)C(CC(F)F)NC(=O)c1sc(Br)c(Cl)c1F (centres unmarked) [1.0430]    3.21^[a]

Let us move to another entry and its LogP.
## Input Quick check: LogP of CCOC(=O)C1(NC(=O)c2cc(I)c(I)s2)CC1 [1.0468] ?
## Output 2.98^[a]

====

Assay: Log P by HPLC on reversed phase columns (EEC directive 79/831 Annex V.A8)
Format: physicochemical
Conditions: method [a]
Experimental: In the above tables, measurement of Log P values was performed according to EEC directive 79/831 Annex V.A8 by HPLC (High Performance Liquid Chromatography) on reversed phase columns with the following methods: • ^[a] […] Lambda-max-values were determined using UV-spectra from 200 nm to 400 nm and the peak values of the chromatographic signals.
propertyMeasured: LogP

COC(=O)C(NC(=O)c1sc(Cl)c(Br)c1C)C(=O)OC    3.07^[a]
COC(=O)C(CSC(=O)N(C)C)NC(=O)c1sc(Br)c(Br)c1Cl (centres unmarked)    3.59^[a]

## Input Quick check: LogP of CCOC(=O)C(CO)NC(=O)c1sc(Br)c(Br)c1C#N (centres unmarked) ?
## Output 2.29^[a]

## Input Same for COC(=O)C(CC(F)F)NC(=O)c1sc(Cl)c(Cl)c1I (centres unmarked)
## Output 3.64^[a]

## Input Same for `CCOC(=O)[C@@H](NC(=O)c1sc(Br)c(Br)c1F)C(C)C`
## Output 4.47^[a]

====

Experiment: Log P by HPLC on reversed phase columns (EEC directive 79/831 Annex V.A8)
Type: physicochemical
Conditions: method marker [a] given with each value; Table 1.1, compounds of formula (I)
propertyMeasured: LogP

Past entries and their recorded results:
CCSC(=O)C(NC(=O)c1sc(Br)c(Br)c1Cl)C(C)C (stereo not drawn) [1.0998]    5.45^[a]
CC(C)(NC(=O)c1sc(Br)c(Br)c1Cl)C(=O)O [1.1023]    2.81^[a]
CCOC(=O)C(NC(=O)c1sc(Br)c(Br)c1F)C(F)(F)F (racemic) [1.0952]    4.08^[a]
Cc1c(C(=O)NC(C#N)C(C)C)sc(C#N)c1Br (stereo not drawn) [1.1016]    3.03^[a]
CCOC(=O)C1(NC(=O)c2sc(Cl)c(Br)c2Br)CSC1 [1.1060]    3.91^[a]

Let us move to another entry and its LogP.
## Input Quick check: LogP of N#CC1(NC(=O)c2sc(Cl)c(Cl)c2Br)CCC1 [1.1014] ?
## Output 3.37^[a]

====

Assay: Log P by HPLC on reversed phase columns (EEC directive 79/831 Annex V.A8)
Assay type: physicochemical
Conditions: reversed phase HPLC columns, value in preparation example, method not marked
propertyMeasured: chromatographic logP

COC(=O)c1sc(Cl)c(C#N)c1C [II.028]    3.01
CCOC(=O)CNC(=O)c1sc(Br)c(Br)c1F [I.0449]    2.97
COC(=O)c1sc(Cl)c(Cl)c1C#N [II.085]    2.98

====

Assay: Log P by HPLC on reversed phase columns (EEC directive 79/831 Annex V.A8)
Assay type: physicochemical
Details: method [a]: LC-UV, acidic range, 0.1% formic acid in water and acetonitrile
propertyMeasured: LogP

Cc1c(C(=O)NC2CCSC2=O)sc(C#N)c1Br (centres unmarked) [I.0829]    2.45^[a]
N#Cc1c(Cl)sc(C(=O)O)c1Br [II.098]    1.68^[a]
CCOC(=O)c1cc(Cl)c(F)s1 [II.062]    3.63^[a]
O=C(NC1CCNC1=O)c1cc(Cl)c(Br)s1 (centres unmarked) [I.0218]    1.71^[a]

## Input Quick check: LogP of O=C(O)c1sc(Br)c(Cl)c1F [II.009] ?
## Output 2.18^[a]

The reported numbers originate from patent US12642270B2.
